Biological target: P70S6K (T412E mutant) (Homo sapiens (Human), UniProt P23443, T412E)
Sequence (P23443 whole entry T412E): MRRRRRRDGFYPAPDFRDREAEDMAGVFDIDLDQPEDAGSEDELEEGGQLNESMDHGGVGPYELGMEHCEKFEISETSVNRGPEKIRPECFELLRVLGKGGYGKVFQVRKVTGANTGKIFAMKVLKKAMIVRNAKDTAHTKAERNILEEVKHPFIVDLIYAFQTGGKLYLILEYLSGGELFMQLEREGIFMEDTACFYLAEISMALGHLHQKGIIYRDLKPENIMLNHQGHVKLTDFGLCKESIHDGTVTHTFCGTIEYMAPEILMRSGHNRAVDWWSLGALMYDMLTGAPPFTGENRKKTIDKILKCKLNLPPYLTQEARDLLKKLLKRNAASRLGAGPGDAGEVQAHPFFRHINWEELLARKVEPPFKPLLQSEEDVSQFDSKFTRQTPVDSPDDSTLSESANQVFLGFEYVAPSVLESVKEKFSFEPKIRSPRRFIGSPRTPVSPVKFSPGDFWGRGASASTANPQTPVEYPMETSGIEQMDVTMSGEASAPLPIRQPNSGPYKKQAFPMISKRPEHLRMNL
Test: P70S6K enzyme assay
Conditions: 3 nM P70S6K T412E mutant, 24 μM ATP, 1 μM FITC-AHA-AKRRRLSSLRA-OH substrate peptide, 90 min at 25° C.
property.label: IC50 (nM)
Give just the number in nM; leave the unit off.

The following compounds have reported results that may help.
Cn1ccc(-c2c(N)ncnc2N2CCN(C(CN)c3ccc(C(F)(F)F)cc3)CC2)n1 (centres unmarked): 98
C=Cc1c(N)ncnc1N1CCC(C(O)c2ccc(F)cc2)CC1 (centres unmarked): 1000
Nc1ncnc(N2CCC(Cc3ccc(C(F)(F)F)cc3)CC2)c1-c1ccc(F)cc1: 66

Field: next compound
Find the recorded IC50 belonging to Nc1ncnc(N2CCN(C(CN3CCC3)c3ccc(Cl)c(Cl)c3)CC2)c1-c1cn[nH]c1 (centres unmarked) and report it.
1500

----------
Biological target: P70S6K (T412E mutant) (Homo sapiens (Human), UniProt P23443, T412E)
Experiment: P70S6K enzyme assay
Type: biochemical
Conditions: 3 nM P70S6K T412E mutant, 24 μM ATP, 1 μM FITC-AHA-AKRRRLSSLRA-OH substrate peptide, 90 min at 25° C.
Description: The IC50 values reported for the compounds in the Experimental section were derived from the following protocol for the p70S6K enzyme assay. P70S6K inhibitor compounds were diluted and plated in 96 well plates. […] The proportion of substrate and product (phosphorylated) peptide was analysed on a Caliper Life Sciences Lab Chip 3000, using a pressure of −1.4 psi, and upstream and downstream voltages of −3000 and −700 respectively. […]
// values below are reported IC50
Give the number; nM is assumed, so skip it.

NCC(c1ccccc1)N1CCN(c2ncnc(N)c2Br)CC1 (centres unmarked): 330
Nc1ncnc(N2CCN(C(CN3CCC3)c3ccc4c(c3)CCCC4)CC2)c1-c1ccc(F)cc1 (centres unmarked): 360
NC[C@@H](c1ccc(C(F)(F)F)cc1)N1CCN(c2ncnc(N)c2-c2cn[nH]c2)CC1: 5.7

Now take the following compound into account.
Query: IC50; subject: COc1ccc(C(C#N)N2CCN(c3ncnc(N)c3-c3ccc(F)cc3)CC2)cn1 (centres unmarked)
220

----------
Target: P70S6K (T412E mutant) (Homo sapiens (Human), UniProt P23443, T412E)
Experiment: P70S6K enzyme assay
Settings: 3 nM P70S6K T412E mutant, 24 μM ATP, 1 μM FITC-AHA-AKRRRLSSLRA-OH substrate peptide, 90 min at 25° C.
property.label: log10 IC50 (log10 of the value in nM)
Hello, just confirming the data are log10 of IC50 with units of nM.

These recorded examples may help you get a feel for the data.
Nc1ncnc(N2CCC(N)(CNC(=O)c3ccc(F)cc3F)C2)c1-c1ccccc1 (stereo not shown): 0.72
CS(=O)(=O)c1ccc(C(CN2CCC2)N2CCN(c3ncnc(N)c3-c3ccc(F)cc3)CC2)cc1 (stereo not shown): 2.45
NCC(c1ccc(C(F)(F)F)cc1)N1CCN(c2ncnc(N)c2C2=CCCCC2)CC1 (stereo not shown): 0.72

Could you tell me which log10 IC50 is on file for Cn1cc(-c2c(N)ncnc2N2CCN(C(CN)c3ccc(C(F)(F)F)cc3)CC2)cn1 (stereo not shown) ?
1.04

So what does the record say about log10 IC50 for NCC(c1ccc(F)c(Cl)c1)N1CCN(c2ncnc(N)c2-c2ccc(F)cc2)CC1 (stereo not shown) ?
0.60

Tell me the measured log10 IC50 of `CN(C)C[C@H](c1ccc(C(F)(F)F)cc1)N1CCN(c2ncnc(N)c2-c2ccc(F)cc2)CC1` , please.
0.69

So what does the record say about log10 IC50 for Nc1ncnc(N2CCC(C(NC3CCCC3)c3ccc(F)cc3)CC2)c1-c1ccc(F)cc1 (stereo not shown) ?
2.08

GET /values?readout=log10 IC50&item= COc1ccc(C(CN)N2CCN(c3ncnc(N)c3-c3ccc(F)cc3)CC2)cn1 (stereo not shown)
0.53

Requested field: log10 IC50. Item: NCC(c1ccc(C(F)(F)F)cc1)N1CCN(c2ncnc(N)c2F)CC1 (stereo not shown)
2.57

// log10 IC50 lookup, key: `Cn1cc(-c2c(N)ncnc2N2CCN([C@H](CN)c3ccc(C(F)(F)F)cc3)CC2)cn1`
1.15

Would you mind telling me what log10 IC50 value was observed for `COc1ccc([C@H](CCO)NC(=O)C2(N)CCN(c3ncnc(N)c3Cl)CC2)cc1` ?
2.58

# input compound: `Nc1ncnc(N2CCN(Cc3cc(Cl)c(Cl)cc3O)CC2)c1-c1ccc(F)cc1` ; wanted: its log10 IC50
1.87

Param item = Nc1ncnc(N2CCC(N)(CNC(=O)c3ccc(F)cc3F)C2)c1-c1ccc(N2CCNCC2)nc1 (stereo not shown) ; retrieve measured log10 IC50.
3.00

Name the reported log10 IC50 value associated with the compound `N#Cc1cccc([C@H](CN2CCC2)N2CCN(c3ncnc(N)c3-c3ccc(F)cc3)CC2)c1`
2.79

Look up log10 IC50 for this compound: CN(C)CCOC(c1ccc(F)cc1)C1CCN(c2ncnc(N)c2-c2ccc(F)cc2)CC1 (stereo not shown)
0.30

----------
Target: P70S6K (T412E mutant) (Homo sapiens (Human), UniProt P23443, T412E)
Test: P70S6K enzyme assay
Details: 3 nM P70S6K T412E mutant, 24 μM ATP, 1 μM FITC-AHA-AKRRRLSSLRA-OH substrate peptide, 90 min at 25° C.
property.label: pIC50
The scale used: pIC50 is minus the common logarithm of the concentration in molar units.

Here are 4 compounds together with their reported answers.
Nc1ncnc(N2CCN(C(CN3CCCC3)c3ccc(F)cc3)CC2)c1-c1ccc(F)cc1 (stereo in doubt) [Example 82]: 7.54
NCC(c1ccc(C(F)(F)F)cc1F)N1CCN(c2ncnc(N)c2-c2ccc(F)cc2)CC1 (stereo not shown) [Example 170]: 7.92
NCC(c1cccc(F)c1)N1CCN(c2ncnc(N)c2-c2ccc(F)cc2)CC1 (stereo not shown) [Example 169]: 8.39
CC(c1ccc(Cl)cc1OC1CNC1)N1CCN(c2ncnc(N)c2-c2ccc(F)cc2)CC1 (stereo not shown) [Example 63]: 6.01

Would you kindly share the measured pIC50 for NCC(c1cccc(C(F)(F)F)c1)N1CCN(c2ncnc(N)c2-c2ccc(F)cc2)CC1 (stereo not shown) [Example 153] ?
7.96

I'd like to know its pIC50. The compound in question is NCC(c1ccc(Cl)c(F)c1)N1CCN(c2ncnc(N)c2-c2cn[nH]c2)CC1 (stereo not shown) [Example 187]
8.21

For N#Cc1ccc(C(CN2CCC2)N2CCN(c3ncnc(N)c3-c3ccc(F)cc3)CC2)cc1 (stereo not shown) [Example 106] , what is its reported pIC50?
6.49

What does the data say about its pIC50? Entry: COC(=O)c1ccc([C@@H](CN2CCC2)N2CCN(c3ncnc(N)c3-c3ccc(F)cc3)CC2)cc1 [Example 110]
6.35

Which pIC50 reading was recorded for the compound CS(=O)(=O)c1ccc(C(CN)N2CCN(c3ncnc(N)c3-c3cn[nH]c3)CC2)cc1 (stereo not shown) [Example 185] ?
7.22

----------
Biological target: P70S6K (T412E mutant) (Homo sapiens (Human), UniProt P23443, T412E)
Test: P70S6K enzyme assay
Settings: 3 nM P70S6K T412E mutant, 24 μM ATP, 1 μM FITC-AHA-AKRRRLSSLRA-OH substrate peptide, 90 min at 25° C.
property.label: IC50 (nM)
Report the value in nM with no unit label.

COc1ccc([C@@H](CN2CCC2)N2CCN(c3ncnc(N)c3-c3ccc(F)cc3)CC2)cc1F: 640

Continue with the next compound.
# IC50 lookup, item `COC[C@H](NC(=O)C1(N)CCN(c2ncnc(N)c2Cl)CC1)c1ccc(Cl)cc1`
560

----------
Target: P70S6K (T412E mutant) (Homo sapiens (Human), UniProt P23443, T412E)
Assay: P70S6K enzyme assay
Assay type: biochemical
Details: 3 nM P70S6K T412E mutant, 24 μM ATP, 1 μM FITC-AHA-AKRRRLSSLRA-OH substrate peptide, 90 min at 25° C.
log10 IC50 values by entry
In our notation, the value equals log10 of IC50 in nM.

Look over these answered cases.
Nc1ncnc(N2CCN(C(CN3CCC3)c3cccc(C(F)(F)F)c3Cl)CC2)c1-c1cn[nH]c1 (stereo not drawn): 2.48
CN(C)CC(c1ccc(C(F)(F)F)cc1)N1CCN(c2ncnc(N)c2-c2ccc(C(C)(C)O)cc2)CC1 (stereo not drawn): 1.30
CS(=O)(=O)c1ccc([C@H](CN2CCC2)N2CCN(c3ncnc(N)c3-c3cn[nH]c3)CC2)cc1: 3.63
N#CC(c1ccc(Cl)nc1)N1CCN(c2ncnc(N)c2-c2ccc(F)cc2)CC1 (stereo not drawn): 2.04

Return reported log10 IC50; argument: CCc1c(N)ncnc1N1CCN(C(CN)c2ccc(Cl)nc2)CC1 (stereo not drawn)
2.30
